Values were extracted from ChEMBL document CHEMBL4265906.

Assay: Cytotoxicity against human HCT8 cells assessed as reduction in cell viability after 48 hrs by sulforhodamine B assay
Format: cell-based
Settings: HCT-8 cells
metric-name: CC50 at 48 h (µM)
Answer with a number only, understood to be in µM.

Notebook: Cc1ccc(S(=O)(=O)NCc2cc(-c3ccc4c(c3)OCO4)no2)cc1 , CC50 at 48 h read as 437

Notebook: COc1ccc(-c2cc(CNS(=O)(=O)c3ccc(F)cc3)on2)cc1OC , CC50 at 48 h read as 374

---

System: Leishmania amazonensis
Assay: Leishmanicidal activity against Leishmania amazonensis MHOM/BR/77/LTB0016 amastigotes infected in human THP1 cells assessed as growth inhibition at 50 uM after 48 hrs by chlorophenolred-beta-d-galactopyranoside/Nonidet P-40 reagent-based assay
Assay type: functional
Conditions: MHOM/BR/77/LTB0016, THP-1, 48 h, read-out: GI
Would you kindly list inhibition of growth at 50 µM for each of these compounds?
Answer with a number only, understood to be in %.

Here COc1ccc(-c2cc(CNS(=O)(=O)c3ccc([N+](=O)[O-])cc3)on2)cc1 was tested on Leishmania amazonensis, and its inhibition of growth at 50 µM came to 48.7

Here O=[N+]([O-])c1ccc(S(=O)(=O)NCc2cc(-c3ccc4c(c3)OCO4)no2)cc1 was tested on Leishmania amazonensis, and its inhibition of growth at 50 µM came to 43.4

Here COc1ccc(-c2cc(CNS(=O)(=O)c3ccc(Cl)cc3)on2)cc1 was tested on Leishmania amazonensis, and its inhibition of growth at 50 µM came to 6.4

Here COc1ccc(-c2cc(CNS(=O)(=O)c3ccc([N+](=O)[O-])cc3)on2)cc1OC was tested on Leishmania amazonensis, and its inhibition of growth at 50 µM came to 10.2

Here O=S(=O)(NCc1cc(-c2ccccc2)no1)c1ccc(Cl)cc1 was tested on Leishmania amazonensis, and its inhibition of growth at 50 µM came to 17.2

---

Assay: Cytotoxicity against human A549 cells assessed as reduction in cell viability after 48 hrs by sulforhodamine B assay
Type: cell-based
Would you kindly list CC50 at 48 h for each of these compounds?
Answer with a number only, understood to be in µM.

Notebook: Cc1ccc(S(=O)(=O)NCc2cc(-c3ccc4c(c3)OCO4)no2)cc1 , CC50 at 48 h read as 358

Notebook: O=[N+]([O-])c1ccc(S(=O)(=O)NCc2cc(-c3ccc4c(c3)OCO4)no2)cc1 , CC50 at 48 h read as 284

Notebook: COc1ccc(-c2cc(CNS(=O)(=O)c3ccc(F)cc3)on2)cc1OC , CC50 at 48 h read as 327

---

Tested on: Leishmania amazonensis
Experiment: Leishmanicidal activity against Leishmania amazonensis MHOM/BR/77/LTB0016 amastigotes infected in human THP1 cells assessed as growth inhibition at 50 uM after 48 hrs by chlorophenolred-beta-d-galactopyranoside/Nonidet P-40 reagent-based assay
Assay type: functional
Details: MHOM/BR/77/LTB0016, THP-1, 48 h, read-out: GI
Assign yes to entries whose inhibition of growth at 50 µM meets or exceeds 10%; assign no to the rest.

Ask: // inclusive: inhibition of growth at 50 µM at least 10%? input: O=[N+]([O-])c1ccc(-c2cc(CNS(=O)(=O)c3ccc(F)cc3)on2)cc1
Result: yes

Ask: // inclusive: inhibition of growth at 50 µM at least 10%? input: COc1ccc(-c2cc(CNS(=O)(=O)c3ccc(C)cc3)on2)cc1
Result: no

Ask: // inclusive: inhibition of growth at 50 µM at least 10%? input: COc1ccc(-c2cc(CNS(=O)(=O)c3ccc(C)cc3)on2)cc1OC
Result: no

Ask: // inclusive: inhibition of growth at 50 µM at least 10%? input: O=[N+]([O-])c1ccc(-c2cc(CNS(=O)(=O)c3ccc([N+](=O)[O-])cc3)on2)cc1
Result: yes

Ask: // inclusive: inhibition of growth at 50 µM at least 10%? input: COc1ccc(-c2cc(CNS(=O)(=O)c3ccc(F)cc3)on2)cc1
Result: yes

Ask: // inclusive: inhibition of growth at 50 µM at least 10%? input: O=[N+]([O-])c1ccc(S(=O)(=O)NCc2cc(-c3ccccc3)no2)cc1
Result: yes

Ask: // inclusive: inhibition of growth at 50 µM at least 10%? input: O=S(=O)(NCc1cc(-c2ccc3c(c2)OCO3)no1)c1ccc(Cl)cc1
Result: yes

Ask: // inclusive: inhibition of growth at 50 µM at least 10%? input: Cc1ccc(S(=O)(=O)NCc2cc(-c3ccc4c(c3)OCO4)no2)cc1
Result: yes

Ask: // inclusive: inhibition of growth at 50 µM at least 10%? input: O=[N+]([O-])c1ccc(-c2cc(CNS(=O)(=O)c3ccc(Cl)cc3)on2)cc1
Result: no

---

Experiment: Cytotoxicity against African green monkey Vero cells assessed as reduction in cell viability after 48 hrs by sulforhodamine B assay
Type: cell-based
Conditions: chlorocebus sabaeus
Would you kindly list CC50 at 48 h for each of these compounds?
Answer with a number only, understood to be in µM.

Notebook: COc1ccc(-c2cc(CNS(=O)(=O)c3ccc(F)cc3)on2)cc1OC , CC50 at 48 h read as 397

Notebook: O=[N+]([O-])c1ccc(S(=O)(=O)NCc2cc(-c3ccc4c(c3)OCO4)no2)cc1 , CC50 at 48 h read as 387

---

Would you kindly list selectivity ratio for each of these molecules?
Assay: Selectivity index, ratio of CC50 for African green monkey Vero cells to IC50 for HSV1 KOS
Type: toxicity
Settings: read-out: Ratio CC50/IC50

Notebook: COc1ccc(-c2cc(CNS(=O)(=O)c3ccc(C)cc3)on2)cc1 , selectivity ratio read as > 3.4

Notebook: Nc1nc2c(ncn2COCCO)c(=O)[nH]1 , selectivity ratio read as > 1500

Notebook: COc1ccc(-c2cc(CNS(=O)(=O)c3ccc([N+](=O)[O-])cc3)on2)cc1 , selectivity ratio read as > 3.6

Notebook: O=S(=O)(NCc1cc(-c2ccc3c(c2)OCO3)no1)c1ccc(F)cc1 , selectivity ratio read as > 2.9

Notebook: COc1ccc(-c2cc(CNS(=O)(=O)c3ccc(F)cc3)on2)cc1 , selectivity ratio read as > 5.7

---

Test system: Leishmania amazonensis
Experiment: Leishmanicidal activity against Leishmania amazonensis MHOM/BR/77/LTB0016 amastigotes infected in human THP1 cells assessed as growth inhibition at 50 uM after 48 hrs by chlorophenolred-beta-d-galactopyranoside/Nonidet P-40 reagent-based assay
Format: functional
Conditions: MHOM/BR/77/LTB0016, THP-1, 48 h, read-out: GI
Would you kindly list inhibition of growth at 50 µM for each of these compounds?
Answer with a number only, understood to be in %.

Notebook: Cc1ccc(S(=O)(=O)NCc2cc(-c3ccc([N+](=O)[O-])cc3)no2)cc1 , inhibition of growth at 50 µM read as 9.3

Notebook: COc1ccc(-c2cc(CNS(=O)(=O)c3ccc(F)cc3)on2)cc1OC , inhibition of growth at 50 µM read as 6.6

Notebook: O=S(=O)(NCc1cc(-c2ccccc2)no1)c1ccc(F)cc1 , inhibition of growth at 50 µM read as 13.2

Notebook: Cc1ccc(S(=O)(=O)NCc2cc(-c3ccccc3)no2)cc1 , inhibition of growth at 50 µM read as 10.9

Notebook: O=S(=O)(NCc1cc(-c2ccc3c(c2)OCO3)no1)c1ccc(F)cc1 , inhibition of growth at 50 µM read as 12.8

---

Would you kindly list CC50 for each of these molecules?
Experiment: Cytotoxicity against human THP1 cells assessed as reduction in cell viability by MTT assay
Type: cell-based
Conditions: THP-1 cells
Answer with a number only, understood to be in µM.

Notebook: COc1ccc(-c2cc(CNS(=O)(=O)c3ccc(F)cc3)on2)cc1OC , CC50 read as 300

Notebook: O=[N+]([O-])c1ccc(S(=O)(=O)NCc2cc(-c3ccc4c(c3)OCO4)no2)cc1 , CC50 read as 339

---

Assay: Selectivity index, ratio of CC50 for human THP1 cells to G150 for Trypanosoma cruzi Tulahuen trypomastigotes
Type: toxicity
Settings: THP-1 cells, read-out: Selectivity Index
metric-name: selectivity ratio
Answer with the value's number alone.

Notebook: COc1ccc(-c2cc(CNS(=O)(=O)c3ccc(F)cc3)on2)cc1OC , selectivity ratio read as 7.1

Notebook: O=[N+]([O-])c1ccc(S(=O)(=O)NCc2cc(-c3ccc4c(c3)OCO4)no2)cc1 , selectivity ratio read as 29.1

---

Assay: Selectivity index, ratio of CC50 for human THP1 cells to G150 for Trypanosoma cruzi Tulahuen trypomastigotes
Type: toxicity
Conditions: THP-1 cells, read-out: Selectivity Index
metric-name: selectivity ratio

Notebook: COc1ccc(-c2cc(CNS(=O)(=O)c3ccc([N+](=O)[O-])cc3)on2)cc1 , selectivity ratio read as > 34.8

Notebook: O=[N+]([O-])c1ccc(-c2cc(CNS(=O)(=O)c3ccc([N+](=O)[O-])cc3)on2)cc1 , selectivity ratio read as > 12.9

Notebook: O=C(Cn1ccnc1[N+](=O)[O-])NCc1ccccc1 , selectivity ratio read as > 49.1
